List of selectivity ratio values.
# Test method notes: Therapeutic index, ratio of IC50 for cytotoxicity against human WI-38 cells to IC50 for antiproliferative activity against human NCI-H3122 cells by MTT assay
# Assay type: toxicity, cell-based
# Measurement context: WI-38 cells versus NCI-H3122 cells, read-out: Ratio IC50

Smiles record: [2H]C([2H])([Se][Se]C([2H])([2H])C([2H])([2H])C(=O)O)C([2H])([2H])C(=O)O
selectivity ratio: 21.5

Smiles record: O=C(O)CC[Se][Se]CCC(=O)O
selectivity ratio: 7.9

---

Catalogue of selectivity ratio readings, one per entry.
# Test method notes: Therapeutic index, ratio of IC50 for cytotoxicity against human WI-38 cells to IC50 for antiproliferative activity against human NCI-H1975 cells by MTT assay
# Format: toxicity, cell-based
# Measurement context: WI-38 cells versus NCI-H1975 cells, read-out: Ratio IC50
Readout: selectivity ratio

Smiles record: O=C(O)CC[Se][Se]CCC(=O)O
Reading: 16.1

Smiles record: [2H]C([2H])([Se][Se]C([2H])([2H])C([2H])([2H])C(=O)O)C([2H])([2H])C(=O)O
Reading: 217

These entries and their values trace back to ChEMBL document CHEMBL5532758.
